# Read-out: solute carrier (SLCO1B1), SLCO1B1 (gene 10599)
# Measurement description: LTEA_HepaRG_SLCO1B1: Life Technologies and Expression Analysis (LTEA) Assay for solute carrier (SLCO1B1) using HepaRG (AID 2283530)
# Details: mRNA level, 48 h; actives raise or lower the signal
The source made the active and inactive calls. The calls were made as follows: active = hit-call score of the fitted dose curve at least 0.9, where 1 is the maximum; inactive = score below 0.9.
Measured attribute: AC50

Compound | Recorded result
O=C1CCCCCN1 | inactive
CC(C)CCO | inactive
O=C1OC(=O)C2C3C=CC(C3)C12 (stereo unspecified) | inactive
Fc1ccccc1[C@@H](F)COC1CCC(Nc2ncnc3[nH]ncc23)CC1 (stereo partly specified) | 71.7 µM (active)
O=C(O)CC(O)C(=O)O (stereo unspecified) | inactive

Problem: Find the recorded AC50 belonging to CCC(C)(C)C(=O)O[C@H]1C[C@@H](C)C=C2C=C[C@H](C)[C@H](CC[C@@H]3C[C@@H](O)CC(=O)O3)[C@H]21 and report it.
Result: inactive

Problem: Looking for the measured AC50 of O=C(CCCCCCCCc1cccnc1)N1CCC(C=C(c2ccccc2)c2ccccc2)CC1 , can you help?
Result: 50 µM (active)

Problem: Which AC50 reading was recorded for the compound CC[C@H](C)C(=O)O[C@H]1C[C@@H](C)C=C2C=C[C@H](C)[C@H](CC[C@@H]3C[C@@H](O)CC(=O)O3)[C@H]21 ?
Result: inactive

Problem: Query: AC50; subject: Cn1cnc([N+](=O)[O-])c1Sc1ncnc2nc[nH]c12
Result: 1.62 µM (active)

Problem: Consider the compound shown here: COc1ccc(/C=C/S(=O)(=O)NC(=O)c2ccc(C)cc2Cl)cc1 What is its recorded AC50?
Result: inactive

Problem: # AC50 lookup, item CN(C)c1ccc(Cc2ccc(N(C)C)cc2)cc1
Result: inactive

###

# Assay target: Cellular tumor antigen p53 (Homo sapiens) (UniProt P04637)
# Sequence (P04637 whole entry, looked up): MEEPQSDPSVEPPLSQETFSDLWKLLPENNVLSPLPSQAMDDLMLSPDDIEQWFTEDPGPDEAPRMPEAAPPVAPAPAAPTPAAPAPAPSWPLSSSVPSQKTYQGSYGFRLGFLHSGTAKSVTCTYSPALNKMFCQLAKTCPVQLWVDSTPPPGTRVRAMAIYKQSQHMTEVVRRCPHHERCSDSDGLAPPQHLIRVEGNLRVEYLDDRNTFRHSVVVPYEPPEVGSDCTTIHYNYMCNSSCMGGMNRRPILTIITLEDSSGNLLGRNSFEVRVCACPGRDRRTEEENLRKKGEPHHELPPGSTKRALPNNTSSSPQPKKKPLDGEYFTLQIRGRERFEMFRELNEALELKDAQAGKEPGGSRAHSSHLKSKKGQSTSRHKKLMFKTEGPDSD
# Measurement description: TOX21_p53_BLA_p2_ratio: Tox21 HCT-116 p53 Agonism Beta-lactamase Assay, Ratio, Phase 2 (AID 2283592)
# Procedure: TOX21_p53_BLA_p2 is a cell-based, single-readout assay that uses HCT116, a human intestinal cell line, […] in a 1536-well plate.TOX21_p53_BLA_p2_ratio is an assay readout measuring reporter gene via receptor activity and designed using inducible reporter (beta lactamase induction) detected with GAL4 b-lactamase reporter gene. […] This assay endpoint, TOX21_p53_BLA_p2_ratio, was analyzed in the positive analysis fitting direction relative to DMSO as the negative control and baseline of activity. […]
Records with an inconclusive call do not appear. The source made the active and inactive calls. How the source made its calls: active means hit-call score of the fitted dose curve at least 0.9, where 1 is the maximum; inconclusive means response in the unintended direction; inactive means score below 0.9.
Thanks in advance; please answer with one of these: true (1) = active, false (0) = inactive

Compound | Qualitative label
CC(O)CN(CCN(CC(C)O)CC(C)O)CC(C)O (stereo unspecified) | false (0)
COC(=O)c1c(Cl)c(Cl)c(C(=O)OC)c(Cl)c1Cl | false (0)
O=C(O)c1cc(N=Nc2ccc(S(=O)(=O)Nc3ccccn3)cc2)ccc1O | false (0)

Problem: Any idea what this test logged for CNS(=O)(=O)c1cc(C(=O)N2CCC(CCN3C4CCC3CC(n3c(C)nc5ccccc53)C4)(c3cccc(F)c3)CC2)c(Cl)cc1F (stereo unspecified) ?
Result: false (0)

Problem: // return assay outcome for O=C(O)CCN(C1(C(=O)NO)CCCC1)S(=O)(=O)c1ccc(Oc2ccc(F)cc2)cc1
Result: false (0)

Problem: Each compound tested received a call. Report the one for CCCCC(CC)COC(=O)c1ccc(C(=O)OCC(CC)CCCC)cc1 (stereo unspecified) .
Result: false (0)

Problem: # lookup: test call for C[C@](N)(Cc1ccc(O)c(O)c1)C(=O)O
Result: false (0)

Problem: Any idea what this test logged for COc1cccc(-c2ccc(/C=C\CN3CCCCCC3)cc2Cl)c1 ?
Result: true (1)

Problem: What outcome does the record of this test show for Cc1ccc(O)cc1 ?
Result: false (0)

Problem: // param item: O=C(NS(=O)(=O)/C=C/c1ccccc1)c1ccc(F)cc1Cl ; yields the recorded call
Result: true (1)

Problem: # fetch the recorded call for C=CC(=C)CCC=C(C)C here
Result: false (0)
